Values from PubChem BioAssay (NCATS)

system: CP305; experiment: qHTS profiling for inhibitors of Plasmodium falciparum proliferation (AID 504749); also: nearly all actives have a fitted effect of over 60% in size; conditions: P. falciparum in erythrocytes, SYBR Green DNA, 72 h; series mostly up to 28.7 µM
Results filed as inconclusive are left out. Activity calls are given as the source filed them. Calls follow the shape of the dose curve; as a rule, active = well fitted inhibition curve with a large enough effect; inconclusive = small, poorly fitted or top-dose-only effect; inactive = flat fitted curve, though single readings scatter.
Measured attribute: outcome

Before answering, review these 6 worked examples.
O=C(O)CNC(=O)c1ccccc1I inactive
Cc1ccc(C(C)C)c(O)c1 inactive
Cc1c(NC(=O)c2cccnc2)c(=O)n(-c2ccccc2)n1C inactive
Cc1ccc(S(=O)(=O)NC(=O)NC2CCCCC2)cc1 inactive
Cc1cc(C)nc(NS(=O)(=O)c2ccc(N)cc2)n1 inactive
CCCCCCCCCCCCCCCCN inactive

Then this compound:
Entry COc1ccccc1OC(=O)Oc1ccccc1OC — recorded outcome = inactive
